The reported measurements were obtained from the RNAGym collection of RNA variant scans (doi:10.7554/elife.80360).

Examples of variants with documented self-cleavage follow.
B1: Twister Ribozyme (parent)
chain: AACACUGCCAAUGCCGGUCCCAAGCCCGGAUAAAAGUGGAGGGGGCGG

# Variants of: B1
# experimental details: self-cleavage, relative activity (ratio to wild type); higher = more cleavage; co-transcriptional

Here is how some variants turned out for self-cleavage.
> print(dat)
   sequence.variant  value.reported
1          U6A G38A           0.738
2         A23C A33C          0.0964
3         U18A G36A           0.111
4         U37C G48U           0.881
5          C8U G42C           0.217
6         U12A G45U            1.02
7         C21G G39U          0.0469
8         G24U A32U          0.0649

Input: Given the variant C3A C21U , what is its reported self-cleavage?
Output: 0.0858

Input: Let us now turn to A32G A35U
Output: 0.986

Input: And what about the variant C21G U37G ?
Output: 0.083

Input: Do the same for C8G C26U please
Output: 0.0555

Input: And what about the variant A34U G47A ?
Output: 0.601

Input: Moving on to G17A G42A
Output: 0.107

Input: Input G39A G47C
Output: 0.137

Input: // query: C15G G39U
Output: 0.0441
